Tested on: Fibroblast
EXPERIMENT: Multiplex assay against human fibroblast
Assay type: toxicity, cell-based
ASSAY_SETUP: 12 h, 10 µM, compound concentration 10 uM, replicate 1
MEASURED_ATTRIBUTE: Population Hoechst High Intensity Objects (%)

COMPOUND | READOUT_NUMBER
CN1CCC[C@@H]1CCO[C@](C)(c1ccccc1)c1ccc(Cl)cc1.O=C(O)/C=C/C(=O)O [CLEMASTINE FUMARATE] | 10
COc1cc2nccc(Oc3ccc(NC(=O)Nc4cc(C)on4)c(Cl)c3)c2cc1OC.O | 13
CC(C)NCC(O)COc1ccc(CCOCC2CC2)cc1.Cl (stereo unspecified) [BETAXOLOL HYDROCHLORIDE] | 16
Cc1nc(-c2ccc(-c3ccc(C(=O)N4CCc5cc6c(cc54)C4(CCN(C)CC4)CO6)cc3)c(C)c2)no1 | 15
C[C@@H](NCCCc1cccc(C(F)(F)F)c1)c1cccc2ccccc12.Cl [CINACALCET HYDROCHLORIDE] | 11
CCN(CC)CCCCNc1ncc2cc(-c3cc(OC)cc(OC)c3)c(NC(=O)NC(C)(C)C)nc2n1 | 57
CN1CCCC(n2nc(Cc3ccc(Cl)cc3)c3ccccc3c2=O)CC1.Cl (stereo unspecified) [AZELASTINE HYDROCHLORIDE] | 18
CN1CCN(c2ccc(OC(F)(F)F)c(Nc3ncc4c(n3)-c3c(c(C(N)=O)nn3CCO)CC4)c2)CC1 | 15
Cc1nc(-c2cn3c(n2)-c2ccc(-c4cnn(C(C)(C)C(N)=O)c4)cc2OCC3)n(C(C)C)n1 | 11
CN(C)C(=O)/C(C#N)=C/c1ccc(-c2nc3cnc4[nH]ccc4c3n2C2CCCCC2)o1 | 61
Cc1nc(Nc2n[nH]c3c2CN(C(=O)N[C@H](CN(C)C)c2ccccc2)C3(C)C)c2sccc2n1 | 11
C=CC(=O)Nc1cccc(C(=O)Nc2ccc(Nc3cc(-c4[nH]c(SC)nc4C)ccn3)cc2)c1 | 19
Cc1c(-c2ccc(O)cc2)n(Cc2ccc(OCCN3CCCCCC3)cc2)c2ccc(O)cc12 | 26
Cc1cc(C)cc(-c2cnc3cc(Cl)c(-c4cccc(O)c4)cc3c2OCCCN)c1 | 11
CC[C@H](C)C(=O)O[C@H]1C[C@@H](C)C=C2C=C[C@H](C)[C@H](CC[C@@H]3C[C@@H](O)CC(=O)O3)[C@H]21 | 13
COc1ncc(-c2ccc3nccc(-c4ccnnc4)c3c2)cc1NS(=O)(=O)c1ccc(F)cc1F | 18

---

Test system: U2OS
EXPERIMENT: Multiplex assay against U2OS
Type: toxicity, cell-based
ASSAY_SETUP: human, 24 h, 1 µM, compound concentration 1 uM, replicate 1
MEASURED_ATTRIBUTE: Population Healthy Nuclei (%)

COMPOUND | TARGET_UNDER_TEST | READOUT_NUMBER
Cc1[nH]c(/C=C2\C(=O)Nc3ccc(S(=O)(=O)N(C)c4cccc(Cl)c4)cc32)c(C)c1C(=O)N1CCN(C)CC1 | U2OS | 77
CN1CCN(CCOc2cc(OC3CCOCC3)c3c(Nc4c(Cl)ccc5c4OCO5)ncnc3c2)CC1 [SARACATINIB] | U2OS | 71
CCN(CC)CCCCNc1ncc2cc(-c3cc(OC)cc(OC)c3)c(NC(=O)NC(C)(C)C)nc2n1 [PD-173074] | U2OS | 8
CC[C@H](C)C(=O)O[C@H]1C[C@@H](C)C=C2C=C[C@H](C)[C@H](CC[C@@H]3C[C@@H](O)CC(=O)O3)[C@H]21 [LOVASTATIN] | U2OS | 84
